Tested on: A673/TR/shEF
test summary: cell viability (LOESS-normalised, relative to median of negative controls) (log2 ratio); higher = more viable cells (less compound effect), active = hit call of the paper (over 3 MAD below the median)
particulars: 2.5 µM; library screen: screen1; EWS-FLI1 expression: low (doxycycline-induced shRNA knockdown); treatment time: 72 h
The whole screen tested about 3,200 compounds, of which about 300 (9.4%) showed activity. The list comes from a sample in which actives are over-represented; it also holds close analogues and randomly drawn compounds.
Reported cell viability (log2) values for the following compounds.
Answer as a number with no unit attached.

Requested field: cell viability (log2). Item: CC1(C)S[C@@H]2[C@H](NC(=O)C(C(=O)O)c3ccccc3)C(=O)N2[C@H]1C(=O)O (some centres not stated)
0.131

Entry `CC(C)N1C(=O)/C(=C\c2ccco2)SC1=S` please
0.139

Entry CCN(CCO)CCCC(C)Nc1ccnc2cc(Cl)ccc12 (configuration not stated) please
0.0473

Entry `O=C(O)c1ccc(O)c2c1C(=O)c1cc(O)cc(O)c1C2=O` please
0.0247

Entry `CC1(C)C=Cc2c(cc3occ(-c4ccc5c(c4)OCO5)c(=O)c3c2O)O1` please
0.0314

Entry CCOC(=O)C1=C(C)NC2=C(C(=O)CC(C)(C)C2)C1c1coc2ccccc2c1=O (configuration not stated) please
0.0912

Entry `COc1ccc(CN2CCN(Cc3ccccc3C(F)(F)F)CC2)c(OC)c1OC` please
0.144

Entry COC(=O)C1=C(C)NC2=C(C(=O)CCC2)C1c1coc2ccccc2c1=O (configuration not stated) please
0.0379

----------
Tested on: A673/TR/shEF
test summary: cell viability (LOESS-normalised, relative to median of negative controls) (log2 ratio); higher = more viable cells (less compound effect), active = hit call of the paper (over 3 MAD below the median)
particulars: 0.25 µM; library screen: screen1; EWS-FLI1 expression: low (doxycycline-induced shRNA knockdown); treatment time: 72 h
Screen size: about 3,200 compounds; about 300 (9.4%) showed activity. Many of the other results were omitted from the sample, so actives are more common in it than they were.
Entries whose cell viability (log2) is below 0.1 take YES; entries at or above 0.1 take NO.

Field: example entries. Status: answers known.
{"columns": ["smiles code", "target or system", "cat"],
 "data": [
  ["N[C@@H](CSCSC[C@H](N)C(=O)O)C(=O)O", "A673/TR/shEF", "YES"],
  ["C=CCN1C(=O)/C(=C2\\SC(=S)N(c3c(C)n(C)n(-c4ccccc4)c3=O)C2=O)c2ccccc21", "A673/TR/shEF", "YES"],
  ["COc1cccc(CN2CCN(Cc3c[nH]c4ccccc34)CC2)c1", "A673/TR/shEF", "NO"]
]}

Could you now look at the following compound, please?
Dear reviewer, please state whether `C[C@@H]1O[C@@H](O[C@H]2[C@H](O[C@H]3CC[C@@]4(C)[C@@H](CC[C@]5(C)[C@@H]4CC=C4[C@@H]6CC(C)(C)CC[C@]6(C(=O)O)CC[C@]45C)[C@]3(C)CO)OC[C@H](O)[C@@H]2O)[C@H](O)[C@H](O)[C@H]1O` has cell viability (log2) strictly beneath 0.1.
NO

----------
Tested on: A673/TR/shEF
test summary: cell viability (LOESS-normalised, relative to median of negative controls) (log2 ratio); higher = more viable cells (less compound effect), active = hit call of the paper (over 3 MAD below the median)
particulars: 2.5 µM; library screen: screen1; EWS-FLI1 expression: high (no doxycycline); treatment time: 72 h
The whole screen tested about 3,200 compounds, of which about 300 (9.4%) showed activity. The sample as a whole holds a higher share of actives than the screen did.
Entries whose cell viability (log2) is below 0.1 take Yes; entries at or above 0.1 take No.

Field: example entries. Status: answers known.
{"columns": ["molecule", "cat"],
 "data": [
  ["CCc1c(C)c(C#N)c2nc3ccccc3n2c1N1CCN(C)CC1", "No"],
  ["CC(=O)O[C@@H]1CC[C@@]2(C)C(=CC=C3[C@@H]4CC[C@H]([C@H](C)/C=C/[C@H](C)C(C)C)[C@@]4(C)CC[C@@H]32)C1", "No"],
  ["C[C@H](C[C@@H](O)[C@@H]1OC1(C)C)[C@@H]1CC[C@]2(C)C3=CC[C@H]4C(C)(C)C(=O)CC[C@]4(C)[C@H]3CC[C@@]12C", "Yes"],
  ["CC(C)=CCc1c(O)cc(C)oc1=O", "No"],
  ["CC(=O)O[C@@H]1CC[C@@]2(C)[C@H](CC[C@@H]3[C@@H]2C[C@H](OC(C)=O)[C@]2(C)[C@@H](C(C)=O)CC[C@@H]32)C1", "Yes"]
]}

Dear reviewer, please state whether `COc1ccc2c(c1)OCC(=Cc1ccc(OC)c(O)c1)C2=O` has cell viability (log2) strictly beneath 0.1.
No

Entry `CN(C)CCCn1cc(C2=C(c3c[nH]c4ccccc34)C(=O)NC2=O)c2ccccc21` please
Yes

Entry COc1cc(NC(C)CCCN)c2ncccc2c1 (stereo not drawn) please
No

Entry `Oc1ccc2c(c1)OC[C@]1(O)Cc3cc(O)c(O)cc3[C@H]21` please
Yes

Entry `OC[C@H]1O[C@@](CO)(O[C@H]2O[C@H](CO)[C@@H](O)[C@H](O)[C@H]2O)[C@@H](O[C@H]2O[C@H](CO)[C@@H](O)[C@H](O)[C@H]2O)[C@@H]1O` please
Yes

Entry CC(=O)O[C@@H]1CC2C(C)(C)CCC[C@]2(C)C2CC[C@]3(C)C(=CC(=O)O[C@H]3c3ccoc3)[C@@]21C (stereo partly drawn) please
Yes

Entry `CCOc1ccc2nc(SC)nc(C)c2c1` please
No

Entry `C[C@@H]1O[C@@H](O[C@H]2[C@H](O[C@H]3CC[C@@]4(C)[C@@H](CC[C@]5(C)[C@@H]4CC=C4[C@@H]6CC(C)(C)CC[C@]6(C(=O)O)CC[C@]45C)[C@]3(C)CO)OC[C@H](O)[C@@H]2O)[C@H](O)[C@H](O)[C@H]1O` please
Yes

Entry `COc1ccccc1-c1coc2cc(O)ccc2c1=O` please
No

Entry `COc1ccc(CN2CCN(Cc3ccc([N+](=O)[O-])cc3)CC2)cc1OC` please
Yes

Entry `O=C(O)CCCCCCCn1ccnc1` please
No

Entry `Cn1cc(C2=C(c3cn(CCCSC(=N)N)c4ccccc34)C(=O)NC2=O)c2ccccc21` please
Yes

Entry `COc1cc(O)c2c(=O)c(O)c(-c3ccc(O)c(O)c3)oc2c1` please
Yes
